Target: Torsin-1A (Homo sapiens) (UniProt O14656)
Sequence (O14656 whole entry, looked up): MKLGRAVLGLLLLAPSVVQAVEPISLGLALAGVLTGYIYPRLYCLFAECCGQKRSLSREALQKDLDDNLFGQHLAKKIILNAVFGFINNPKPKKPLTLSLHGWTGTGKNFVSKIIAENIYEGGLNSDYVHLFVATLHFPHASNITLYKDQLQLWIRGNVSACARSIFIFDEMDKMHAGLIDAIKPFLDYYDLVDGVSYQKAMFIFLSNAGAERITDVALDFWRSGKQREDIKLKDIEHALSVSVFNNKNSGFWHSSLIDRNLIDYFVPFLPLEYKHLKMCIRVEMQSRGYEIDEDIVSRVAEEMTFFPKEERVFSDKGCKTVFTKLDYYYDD
Assay: small-molecule binders of mutant TOR1A in lysate, primary screen, cell lysate, small-molecule microarray, COS7 lysate, 635/667 nm fluorescence (AID 1150);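 further: score pools 667 nm emission and signal to noise measuring lysate protein binding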
Conditions: COS7 hTOR1A mutant lysate, 635 nm fluorescence, higher = more signal
This listing pairs compounds with measured composite z-score.

Compound: Cc1ccc(S[C@]2(C(=O)NC(C)C)CC(=O)N(Cc3ccccc3Cl)[C@@H]2c2ccc(CO)cc2I)cc1
composite z-score: -1.25
--
Compound: CC(C)C(=C=CC[C@@H](O)c1ccccc1OCCO)CCO
composite z-score: -0.455
--
Compound: CC(C)(C)OC(=O)CC[C@@]1(C(=O)NCC(O)CO)N=C(c2ccc(OCCCO)cc2)O[C@@H]1c1ccccc1N=[N+]=[N-] (stereo partly drawn)
composite z-score: 1.76
--
Compound: C=CCOC(=O)[C@H]1[C@@H]2C(=O)O[C@@H](c3ccccc3)[C@@H](c3ccccc3)N2[C@@H](c2ccc(OCCOC(=O)[C@H]3C[C@H]4C(=O)N5CCC[C@H]5C(=O)N4[C@H]3c3ccc(O)cc3)cc2)[C@]12C(=O)Nc1ccccc12
composite z-score: 1.1
--
Compound: O=C1c2ccccc2[C@@]2(Cc3ccccc3N(CCN3CCOCC3)C2=O)[C@H](c2ccc(CO)cc2)N1Cc1ccccc1
composite z-score: 0.456
--
Compound: COCCOC(=O)N1C(=O)[C@@]2(c3cc(C#Cc4ccc(OC)cc4)ccc31)[C@H](c1ccccc1OCCO)N1[C@H](c3ccccc3)[C@H](c3ccccc3)OC(=O)[C@H]1[C@@H]2C(=O)N1CCN(c2ncccn2)CC1
composite z-score: 0.374
--
Compound: C=CCNC(=O)[C@H]1[C@@H]2C(=O)O[C@@H](c3ccccc3)[C@@H](c3ccccc3)N2[C@@H](c2ccccc2OCCO)[C@]12C(=O)Nc1ccc(C#CC3=CCCCC3)cc12
composite z-score: 1.14
--
Compound: CC(C)C[C@@H]1NC(=O)[C@H]2C[C@@H](C(=O)NCCCCCCN(C)C)[C@@H](c3ccc(O)cc3)N2C1=O
composite z-score: 1.52
--
Compound: C=CCNC(=O)[C@@H]1[C@H]2C(=O)O[C@H](c3ccccc3)[C@H](c3ccccc3)N2[C@H](c2ccccc2OCCO)[C@@]12C(=O)N(C(=O)OCCOC)c1ccc(C#CCNC(N)=O)cc12
composite z-score: 0.697
--
Compound: C=C(CCCC)C(=O)CC[C@H](OC(=O)c1cccnc1)c1ccccc1OCCO
composite z-score: 0.218
--
Compound: COC(=O)C(CC#Cc1ccc2c(c1)[C@]1(C(=O)N2)[C@H](C(=O)O)[C@H]2C(=O)O[C@H](c3ccccc3)[C@H](c3ccccc3)N2[C@@H]1c1ccc(O)cc1)C(=O)OC
composite z-score: 0.446
--
Compound: CC(=O)NCCCC[C@@H]1NC(=O)[C@@H]2C[C@H](C(=O)NCCCCCCNC(=O)CS)[C@H](c3cccc(OCCO)c3)N2C1=O
composite z-score: 0.669
--
Compound: CN1C2C=C(CCCO)C(C3C(=O)N(C(N)=O)C(=O)C32)C1c1ccc(CN2CCCC2)cc1 (stereo not drawn)
composite z-score: -0.266

----------
Target: Neurogenic locus notch homolog protein 3 (Homo sapiens)
Assay: NOTCH3 binders on small-molecule microarray, primary screen, biochemical, 635/667 nm fluorescence (AID 1096)
Conditions: NOTCH3 binding, 635 nm fluorescence, higher = more signal

Compound: CN1C(=O)C2C=CC(C(O)C3CCCCC3)N(Nc3ccc([N+](=O)[O-])cc3[N+](=O)[O-])C2C1=O (centres undefined)
composite z-score: 1.03
--
Compound: C=CCNC(=O)[C@H]1[C@@H]2C(=O)O[C@@H](c3ccccc3)[C@@H](c3ccccc3)N2[C@@H](c2ccc(O)cc2)[C@]12C(=O)N(C(=O)OCCOC)c1ccc(C#CCNC(N)=O)cc12
composite z-score: 0.924
--
Compound: CC(C)C(CO)N1C(=O)[C@@H]2[C@H]3C(=O)OCC=C[C@H]3OC23C=CCN(C(C)C)C(=O)[C@@H]13 (some centres undefined)
composite z-score: 0.51
--
Compound: CN(C)CCCNC(=O)[C@@]1(C)c2ccccc2C(=O)N(Cc2cc(F)cc(C(F)(F)F)c2)[C@H]1c1ccc(CO)cc1
composite z-score: -0.604

----------
Test: CREB reporter modulators under forskolin, primary screen, cell-based, PC12, CRE-LacZ reporter, forskolin-stimulated (AID 1146);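 further: PC12 cells with 6xCRE LacZ reporter stimulated by forskolin 10 µM; beta-galactosidase reporter signal reflecting CREB driven transcription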
Settings: luminescence, 4.5 h, higher = more signal, called active from +8 up or from −8 down
# z-score per record follows

Molecule: COC(=O)c1c(CC[C@@H](CO)NC(=O)N2CCC[C@H]2Cn2cc(-c3ccccn3)nn2)oc(C(C)=O)c1C(=O)OC
z-score: -0.0037
--
Molecule: O=C1O[C@H](c2ccccc2)[C@H](c2ccccc2)N2[C@H]1[C@@H](C(=O)O)[C@]1(C(=O)Nc3ccc(C#CCCO)cc31)[C@H]2c1ccc(O)cc1
z-score: -1.37
--
Molecule: COc1ccc(COC2OC[C@]3(C)[C@H]4C5=C(CN3C(=O)OC(C)(C)C)[C@H](C)C(CO)C(CO)C5CC[C@@H]24)cc1 (some centres undefined)
z-score: 1.99
--
Molecule: COCCn1c(C(=O)N2CCCC2)cc2c1C[C@H]1CN(C(=O)c3ccccc3)[C@@](Cc3ccc(F)cc3)(C(=O)OC)[C@@H]21
z-score: -0.442

----------
Test: A549 lung cancer cell viability effects, profiling panel, resazurin fluorescence, 24 h, PK04 Diversity Set (AID 1171); further: test concentration not given here
Settings: higher = more signal, called active from +8 up or from −8 down
Calls of active or inactive are those of the source.
The entries below are paired with their reported z-score.

Compound: [N-]=[N+]=NCc1ccccc1[C@@H]1OC(c2ccc(OCCCO)cc2)=N[C@]1(Cc1ccccc1N=[N+]=[N-])C(=O)N1CCOCC1
z-score: -0.867 (inactive)
//
Compound: C=CCOC(=O)[C@H]1[C@@H]2C(=O)O[C@@H](c3ccccc3)[C@@H](c3ccccc3)N2[C@@H](c2ccc(OCCOC(=O)[C@@H]3C[C@@H]4C(=O)N[C@@H](CCCCN(C)C)C(=O)N4[C@@H]3c3ccc(O)cc3)cc2)[C@]12C(=O)Nc1ccc(I)cc12
z-score: 0.183 (inactive)
//
Compound: CCCCc1cn(C[C@H](Cc2ccccc2)NC(=O)N[C@H](CO)CCc2oc(C(C)=O)c(C(=O)OC)c2C(=O)OC)nn1
z-score: -0.571 (inactive)
//
Compound: C=CCOC(=O)[C@H]1[C@@H]2C(=O)O[C@@H](c3ccccc3)[C@@H](c3ccccc3)N2[C@@H](c2ccc(OCCOC(=O)[C@H]3C[C@H]4C(=O)N5CCC[C@H]5C(=O)N4[C@H]3c3ccc(O)cc3)cc2)[C@]12C(=O)Nc1ccccc12
z-score: 0.315 (inactive)
//
Compound: O=C1NC(=O)C2C1C=CC(C(O)C(c1ccccc1)c1ccccc1)N2Nc1ccc(Cl)cc1Cl (stereo not drawn)
z-score: -1.18 (inactive)
//
Compound: COCCCNC(=O)C1N=C(c2ccc(OCCCO)cc2)N(c2ccccc2)O1 (stereo not drawn)
z-score: 0.938 (inactive)
//
Compound: COC(=O)[C@@]1(Cc2ccccc2)[C@H]2c3cc(C(=O)N4CCCC4)n(Cc4cccc5ccccc45)c3C[C@H]2CN1C(=O)c1ccccc1
z-score: -1.19 (inactive)
//
Compound: COCCOC(=O)N1C(=O)[C@@]2(c3cc(C#CCCO)ccc31)[C@H](C(=O)N1CCc3cc(OC)c(OC)cc3C1)[C@H]1C(=O)O[C@H](c3ccccc3)[C@H](c3ccccc3)N1[C@@H]2c1ccc(O)cc1
z-score: -0.689 (inactive)
//
Compound: O=C1NCC(=O)N2[C@@H]1C[C@@H](C(=O)O)[C@H]2c1cccc(OCCO)c1
z-score: -0.229 (inactive)
//
Compound: O=C1C2C=CC(C(O)c3ccc(F)cc3)N(Nc3ccccc3F)C2C(=O)N1c1ccccc1 (stereo not drawn)
z-score: 0.0853 (inactive)
//
Compound: C=CC[C@]1(C(=O)NCCCOC)N=C(c2ccc(OCCCO)cc2)O[C@H]1c1ccccc1N=[N+]=[N-]
z-score: 0.393 (inactive)
//
Compound: C=CCC(OC(C)=O)[C@@H]1[C@@H](N(Cc2ccc(-c3cccc(C(F)(F)F)c3)o2)C(=O)Cc2ccc(F)cc2)c2cc(OCCCO)ccc2N1C(=O)Cc1ccc(OC)cc1 (stereo partly drawn)
z-score: 0.555 (inactive)
//
Compound: COc1ccc([Si](C)(C)[C@@H]2[C@@H](CC(=O)N3Cc4ccccc4C[C@H]3CO)O[C@]3(C(=O)N(C)c4c(Br)cc(C)cc43)[C@H]2C)cc1
z-score: -1.18 (inactive)
//
Compound: COc1cc2c(cc1O)C(C1CC1)N(Cc1cc3c(cc1Br)OCO3)CC2 (stereo not drawn)
z-score: -4.06 (inactive)
//
Compound: OC([C@@H]1CC(c2ccccc2)=NO1)[C@H]1CC(c2ccccc2)=NO1 (stereo partly drawn)
z-score: 1.04 (inactive)
//
Compound: O=C1C2C=CC(C(O)C(c3ccccc3)c3ccccc3)N(n3cnnc3)C2C(=O)N1Cc1ccccc1 (stereo not drawn)
z-score: -0.387 (inactive)
//
Compound: C=CCNC(=O)[C@@H]1[C@H]2C(=O)O[C@H](c3ccccc3)[C@H](c3ccccc3)N2[C@H](c2ccc(OCCO)cc2)[C@@]12C(=O)Nc1ccc(C#Cc3ccc(OC)cc3)cc12
z-score: -1.03 (inactive)
//
Compound: C=CC[C@]12N=C(c3ccc(OCCCO)cc3)O[C@H]1c1ccccc1N(Cc1ccccc1)C2=O
z-score: -1.48 (inactive)
//
Compound: O=C1OCCC/C=C\[C@H]2OC34C=CCN(Cn5nnc6ccccc65)C(=O)[C@H]3N(CCCCCCO)C(=O)[C@@H]4C12 (stereo partly drawn)
z-score: 0.818 (inactive)
//
Compound: C=CCOC(=O)[C@H]1[C@@H]2C(=O)O[C@@H](c3ccccc3)[C@@H](c3ccccc3)N2[C@@H](c2ccc(OCCOC(=O)[C@H]3C[C@H]4C(=O)N5CCC[C@H]5C(=O)N4[C@H]3c3ccc(O)cc3)cc2)[C@]12C(=O)Nc1ccc(I)cc12
z-score: -1.16 (inactive)
//
Compound: CC(C)(C)OC(=O)CC[C@@]12N=C(c3ccc(OCCCO)cc3)O[C@@H]1c1ccccc1N(CCS(=O)(=O)c1ccccc1)C2=O
z-score: -1.91 (inactive)
//
Compound: CC(C)C[C@@H]1NC(=O)[C@H]2C[C@@H](C(=O)NCCCCCCN)[C@@H](c3ccc(O)cc3)N2C1=O
z-score: -0.939 (inactive)
//
Compound: [N-]=[N+]=NCc1ccccc1C[C@]1(C(=O)O)N=C(c2ccc(OCCCO)cc2)O[C@H]1c1ccccc1N=[N+]=[N-]
z-score: -1.77 (inactive)
//
Compound: C=CCOC(=O)[C@H]1[C@@H]2C(=O)O[C@@H](c3ccccc3)[C@@H](c3ccccc3)N2[C@@H](c2ccc(OCCOC(=O)[C@@H]3C[C@@H]4C(=O)N5CCC[C@H]5C(=O)N4[C@@H]3c3cccc(OCCO)c3)cc2)[C@]12C(=O)Nc1ccccc12
z-score: -1.65 (inactive)
//
Compound: COc1ccc(C(O)C2C=CC3C(=O)N(c4ccccc4)C(=O)C3N2Nc2ccc(C(C)C)cc2)cc1OCc1ccccc1 (stereo not drawn)
z-score: -0.193 (inactive)
//
Compound: COc1ccc([C@H]2C[C@H]3C(Br)=C[C@@H]2C(=O)[C@]32CO2)cc1
z-score: 0.217 (inactive)
//
Compound: O=C1NC(=O)C2C1C=CC(C(O)Cc1ccccc1)N2Nc1ccc(Cl)cc1Cl (stereo not drawn)
z-score: -0.519 (inactive)
//
Compound: CC(=O)N1Cc2ccccc2C[C@@]2(COC(c3ccc(OCCCO)cc3)=N2)C1=O
z-score: 0.89 (inactive)
